- study.target: 5-hydroxytryptamine receptor 1A (Homo sapiens, UniProt P08908)
- Sequence (P08908 whole entry): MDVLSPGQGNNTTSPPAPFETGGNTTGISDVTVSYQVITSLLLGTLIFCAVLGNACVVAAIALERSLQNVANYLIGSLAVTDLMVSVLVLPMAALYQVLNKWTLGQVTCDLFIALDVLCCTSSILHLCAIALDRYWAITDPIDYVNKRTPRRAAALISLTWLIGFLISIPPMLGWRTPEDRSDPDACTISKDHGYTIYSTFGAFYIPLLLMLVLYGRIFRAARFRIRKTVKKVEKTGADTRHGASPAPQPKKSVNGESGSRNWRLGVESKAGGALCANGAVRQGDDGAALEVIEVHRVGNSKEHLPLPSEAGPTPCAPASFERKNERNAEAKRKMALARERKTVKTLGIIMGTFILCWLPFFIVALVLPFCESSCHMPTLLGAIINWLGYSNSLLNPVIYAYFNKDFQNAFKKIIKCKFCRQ

smiles.data	study.target	uom	value.relation.sign	Ki
O=C(CCCN1CCN(c2ccc(Cl)cc2)CC1)c1nc2ccccc2s1	5-hydroxytryptamine receptor 1A (Homo sapiens, UniProt P08908)	nM	>	10000
c1ccc2c(c1)CCN(CCCCc1nc3ccccc3s1)C2	5-hydroxytryptamine receptor 1A (Homo sapiens, UniProt P08908)	nM	=	5.1
OC1(c2ccc(Cl)cc2)CCN(CCCCc2nc3ccccc3s2)CC1	5-hydroxytryptamine receptor 1A (Homo sapiens, UniProt P08908)	nM	=	771
Clc1ccc(N2CCN(CCCc3nc4ccccc4s3)CC2)cc1	5-hydroxytryptamine receptor 1A (Homo sapiens, UniProt P08908)	nM	=	312
O=C(CCCCN1CCN(c2ccccc2)CC1)c1nc2ccccc2s1	5-hydroxytryptamine receptor 1A (Homo sapiens, UniProt P08908)	nM	=	3.6
